Data origin, for the record: PubChem BioAssay AID720543

target: (Lyso)-N-acylphosphatidylethanolamine lipase (Mus musculus) (UniProt Q8VD66); assay: ABHD4 inhibitors, primary screen, biochemical, fluorescence polarization, mouse (AID 720543); settings: purified mABHD4, FP-Rh probe fluorescence polarization; at 8.92 µM; active compounds read high;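 further: 0% = plate median of compound wells and 100% = S159A mutant with DMSO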
Sequence (Q8VD66 whole entry, looked up): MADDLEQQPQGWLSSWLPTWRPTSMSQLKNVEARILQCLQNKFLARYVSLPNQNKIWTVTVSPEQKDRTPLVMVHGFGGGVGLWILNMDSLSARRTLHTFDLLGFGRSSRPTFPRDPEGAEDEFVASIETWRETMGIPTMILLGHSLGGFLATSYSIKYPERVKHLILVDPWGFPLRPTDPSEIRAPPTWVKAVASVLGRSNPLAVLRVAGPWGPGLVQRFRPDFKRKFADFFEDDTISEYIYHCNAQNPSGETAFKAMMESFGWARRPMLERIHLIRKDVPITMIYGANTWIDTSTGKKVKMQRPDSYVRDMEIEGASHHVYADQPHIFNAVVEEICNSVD
Screen size: about 370,000 compounds; about 2,000 (0.54%) were called active. This excerpt belongs to a sample that is enriched for actives.
readout_kind: inhibition

Past entries and their recorded results:
compound: Cc1ccc(S(=O)(=O)N2CCOCC2)cc1NC(=O)c1ccncc1
experimental_value: -3.76% (inactive)
--
compound: Nc1[nH]c(C(=O)c2ccccc2)c(-c2ccncc2)c1C(=O)NCc1cccc2ccccc12
experimental_value: -0.51% (inactive)
--
compound: CC(C)COC(=O)n1c(=O)oc2ccc(S(=O)(=O)N3CCCCC3)cc21
experimental_value: 42.3% (active)
--
compound: CC(=O)Nc1ccc(OC[C@@H](O)CN2CCC(C(O)(c3ccccc3)c3ccccc3)CC2)cc1
experimental_value: -3.77% (inactive)

inhibition lookup needed for CC(=O)c1ccc(S(=O)(=O)NCC2CCN(C(=O)C(=O)c3cccs3)CC2)cc1 , thanks.
-4.2% (inactive)

inhibition lookup needed for CC(C)NC(=O)/C(C#N)=C\c1ccc(N(C)C)c(Br)c1 , thanks.
3.76% (inactive)

inhibition lookup needed for CCN(C(=O)Nc1cccc2ccccc12)c1ccccc1 , thanks.
18.5% (inactive)

inhibition lookup needed for COc1ccc(Cc2nc3ccc(C(=O)N4CCC(N(C)C)C4)cc3o2)cc1 (configuration not stated) , thanks.
-2.59% (inactive)

inhibition lookup needed for CC[C@@H]1Cc2cc(O)ccc2C2=C1c1ccc(O)cc1C[C@H]2CC , thanks.
35.5% (active)

inhibition lookup needed for O=C(CCCc1ccccc1)NCc1ccccc1 , thanks.
-1.11% (inactive)

inhibition lookup needed for COc1ccnc(C(=O)N2CCC(Oc3cccnc3)CC2)c1 , thanks.
3.41% (inactive)

inhibition lookup needed for Cc1ccccc1CN1CCCCC(NC(=O)Nc2ccccc2F)C1=O (configuration not stated) , thanks.
3.77% (inactive)

inhibition lookup needed for CC1(C)CC(=O)C(C2c3ccccc3S(=O)(=O)c3ccccc32)C(=O)C1 , thanks.
0.77% (inactive)

inhibition lookup needed for Cc1cccc(N2CCN(c3ccc(NC(=O)/C=C\C(=O)O)cc3)CC2)c1 , thanks.
38.7% (active)

inhibition lookup needed for NC(=O)CCC(NS(=O)(=O)c1ccc(Cl)cc1)C(=O)NCc1ccccc1Cl (configuration not stated) , thanks.
1.64% (inactive)

inhibition lookup needed for CCOC(=O)C1CCN(C(=O)c2oc3ccc(S(=O)(=O)N4CCCCCC4)cc3c2C)CC1 , thanks.
6.37% (inactive)

inhibition lookup needed for Cc1cccc(N2CCN(C(=O)c3ccccc3NC(=O)C3CCCCC3C(=O)O)CC2)c1 (configuration not stated) , thanks.
2.26% (inactive)
